Values from PubChem BioAssay (NCI)

Examples of molecules with documented growth inhibition follow.
test: NCI Yeast Anticancer Drug Screen. Data for the cln2 rad14 strain (AID 165);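 further: 0% = growth equal to vehicle treated cultures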
measurement.setup: S. cerevisiae cln2 rad14 strain, at 50.0 µM, stronger effect = higher value
The panel holds about 79,000 compounds, 15% with a hit somewhere; the sample as a whole holds those more often.
// note: answer is a bare numeric in %

Here is how some molecules turned out for growth inhibition.
In [3]: df
Out[3]:
                                   molecule      quantity_name  numeric_result
0            CCOC(=O)CC(=O)C(=O)NNC1=NCCCN1  growth inhibition            14.2
1                  CC1=NN(c2ccccc2)C(=O)CC1  growth inhibition            16.6
2  CCOC(=O)C(Cc1ccc(N=NN(C)C)cc1)NC(=O)CC1c2ccccc2-c2ccccc21 (stereo not given)  growth inhibition           -6.25

The reported value for CCOC(=O)/C(=C/c1cn(C(C)=O)c2ccccc12)P(=O)(OC)OC in terms of growth inhibition is 13.8

The reported value for O=C(O)C1C2CCC3C(C(=O)O)C3C21 (stereo not given) in terms of growth inhibition is -40.2

The reported value for O=C(Nc1ccc(S(=O)(=O)/N=c2\ncccn2C(=O)C(C(F)(F)F)C(F)(F)F)cc1)C(C(F)(F)F)C(F)(F)F in terms of growth inhibition is 22.2
